Target: RET(KD: 658-1114 G810R) (Homo sapiens, UniProt P07949, G810R)
Construct: 658-1114; expressed in transfected cells; host or cells: 293T.165 (293T cells, generated in-house)
Sequence (P07949 658-1114 G810R): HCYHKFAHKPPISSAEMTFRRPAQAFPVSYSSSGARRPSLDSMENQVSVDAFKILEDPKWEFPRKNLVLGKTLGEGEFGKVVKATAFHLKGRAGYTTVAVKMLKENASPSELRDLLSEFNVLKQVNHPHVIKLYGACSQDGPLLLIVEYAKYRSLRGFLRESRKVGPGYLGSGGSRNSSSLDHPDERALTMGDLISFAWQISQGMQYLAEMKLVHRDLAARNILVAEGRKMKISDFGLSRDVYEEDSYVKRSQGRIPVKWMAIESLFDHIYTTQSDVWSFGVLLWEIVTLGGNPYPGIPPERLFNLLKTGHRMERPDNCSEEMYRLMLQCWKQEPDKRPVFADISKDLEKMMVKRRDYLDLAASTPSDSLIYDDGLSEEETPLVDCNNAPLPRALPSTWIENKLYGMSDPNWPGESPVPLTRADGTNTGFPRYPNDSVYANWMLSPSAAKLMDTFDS
Test: HiBiT-Degradation, RET G810R degradation assay (Nano-Glo HiBiT Lytic), 293T.165 cells
Assay type: cell-based
Conditions: 6.0 hours, % remaining protein, read-out: 293T.165 RET(KD: 658-1114 G810R) 6.0 hours (Emax)
Protocol: Dulbecco's modified Eagle medium (DMEM) no-phenol red media and fetal bovine serum (FBS) were purchased from Gibco (Grand Island, NY, USA). […] RET wild-type (WT) and G810R degradation were assessed using the Nano-Glo® HiBiT Lytic assay (Promega, Medison, WI, USA). […] Luminescence signal was measured using an EnVision™ Multimode plate reader (Perkin Elmer, Santa Clara, CA, USA). […]
QUANTITY MEASURED: Emax

Please review the following examples before continuing.
N#Cc1cnn2cc(-c3cnn([C@H]4CC[C@H](N5CCN(c6ccc(N[C@@H]7CCC(=O)NC7=O)cc6F)CC5)CC4)c3)nc(-c3ccc(N4CC5COCC(C4)N5Cc4ccccn4)nc3)c12 (single isomer, unassigned) [Compound 156] | < 30%
COc1ccc(CN2C3CC2CN(c2ccc(-c4nc(-c5cnn([C@H]6CC[C@H](N7CCN(c8cc(OC)c(NC9CCC(=O)NC9=O)cc8F)CC7)CC6)c5)cn5ncc(C#N)c45)cn2)C3)cn1 (relative stereo) [Compound 167] | < 30%
COc1cc(N2CCN([C@H]3CC[C@H](n4cc(-c5cn6ncc(C#N)c6c(-c6ccc(N7C[C@@H]8C[C@@](C)(NC(=O)c9ncccc9Cl)C[C@@H]8C7)nc6)n5)cn4)CC3)CC2)c(F)cc1NC1CCC(=O)NC1=O (some centres unmarked) [Compound 209] | < 30%
N#Cc1cnn2cc(-c3cnn(C4CCN(C(=O)CN5CCC(c6ccc(NC7CCC(=O)NC7=O)cc6F)CC5)CC4)c3)cc(-c3ccc(N4CC5CCC(C4)N5Cc4ccccn4)nc3)c12 (centres unmarked) [Compound 62] | < 50%

Look up and report Emax, with RET(KD: 658-1114 G810R) (Homo sapiens, UniProt P07949, G810R) as system, for CC(C)(C)NC(=O)C1(C)CCN(c2ccc(-c3cc(-c4ccc(N5CCN(C(=O)CN6CCC(c7ccc(NC8CCC(=O)NC8=O)cc7F)CC6)CC5)cc4)cn4ncc(C#N)c34)cn2)CC1 (centres unmarked) [Compound 25]
< 50%
